target: Aspartate--tRNA(Asp/Asn) ligase (Mycobacterium tuberculosis (strain ATCC 25618 / H37Rv)); test: Assay for Asp RNA synthetase-1 from Mycobacterium tuberculosis; type: functional; set-up: scale not given: in the data most compounds retested in dose-response had high values; conditions: 30 µM
Give measured Percent Effect for each item. Keep answers brief.
One number for each entry, in %.

Below are worked cases with known answers.
In [3]: df
Out[3]:
                                   molecule    val
0  COc1cccc(C2CCCN2C(=O)c2cc3c([nH]c2=O)CCC3)c1 (stereo unspecified)   1.28
1  CC(=O)N1CCCN(C(=O)NCCc2cc(Cl)cc(Cl)c2)CC1  -1.44
2     O=C(NCCOc1ccc(Cl)cc1)N1CCS(=O)(=O)CC1  -4.21
3              CSCC(=O)N1CCCN(c2ccccc2C)CC1   0.55
4  O=C(c1ccnnc1)N1C[C@@H](OCC2CCCC2)[C@H]2OCCC[C@H]21   7.95

Each molecule below has a recorded value; state its Percent Effect.
1. CC(C)NC(=O)N1CCC2(CC(=O)N(c3cccc(C#N)c3)C2)C1 (stereo unspecified)
2. CC(C)CS(=O)(=O)N1C[C@H]2C[C@H](C(=O)NCc3ccccc3)[C@@H](C1)O2
3. Cc1ccc(C(=O)N2CCC3(CC2)NC(=O)CC3c2ccccc2)cn1 (stereo unspecified)
4. CCCC(C)(C)NC(=O)c1ccc(CC2CC(=O)NC2=O)cc1 (stereo unspecified)

Marked response:
5.75
2.67
3.23
-0.604

# map each molecule to its Percent Effect
1. O=C(N[C@@H]1CN(Cc2cccs2)[C@@H]2CCCO[C@@H]21)C1CC1
2. Cc1cc(C[S+]([O-])CC(=O)NCc2cccs2)no1 (stereo unspecified)

Marked response:
[4.13, -0.395]
